- target desc: T1, mouse transferrin receptor (mTfR) fused to EGFP, on CHO cells (mouse, UniProt Q62351 1-763)
- T1 construct: whole, on cells; also called mouse TfR; CHO-mTfR-EGFP; not shown: EGFP
- T1 sequence (Q62351 whole entry, the tested form may be a part): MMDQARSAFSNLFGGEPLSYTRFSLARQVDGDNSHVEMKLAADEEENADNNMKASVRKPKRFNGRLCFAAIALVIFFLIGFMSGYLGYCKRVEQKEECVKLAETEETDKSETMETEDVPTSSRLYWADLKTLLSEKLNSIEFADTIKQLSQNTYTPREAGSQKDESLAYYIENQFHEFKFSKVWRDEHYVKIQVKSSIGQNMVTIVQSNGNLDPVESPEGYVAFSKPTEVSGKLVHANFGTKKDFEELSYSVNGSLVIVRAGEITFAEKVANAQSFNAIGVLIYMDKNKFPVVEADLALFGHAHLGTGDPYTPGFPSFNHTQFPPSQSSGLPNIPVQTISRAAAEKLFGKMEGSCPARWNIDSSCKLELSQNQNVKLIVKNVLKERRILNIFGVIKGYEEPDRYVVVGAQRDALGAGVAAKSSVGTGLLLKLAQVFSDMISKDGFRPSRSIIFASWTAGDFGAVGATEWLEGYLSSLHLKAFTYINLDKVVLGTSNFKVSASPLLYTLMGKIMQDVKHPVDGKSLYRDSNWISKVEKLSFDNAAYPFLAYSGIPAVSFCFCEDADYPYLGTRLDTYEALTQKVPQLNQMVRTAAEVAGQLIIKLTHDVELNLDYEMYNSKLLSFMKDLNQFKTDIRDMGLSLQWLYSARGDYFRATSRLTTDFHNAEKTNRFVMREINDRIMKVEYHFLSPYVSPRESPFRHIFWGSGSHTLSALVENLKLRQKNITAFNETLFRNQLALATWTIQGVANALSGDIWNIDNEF
- protocol description: apparent Kd, flow cytometry, CHO cells
outcome measure: pKd
pKd here: minus log base 10 of the concentration, concentration in moles per litre.

binder	pKd
B8^V33 (VHH) VHH: EVQLVESGGGVVQPGGSLRLSCAASGEIFSINFMRWYRQAPGKQREWVAGFTRDGSTNYPDSAKGRFTISRDNAKNTVYLQIDSLKPEDTAVYYCYMLKTWGQGTQVTVSS	6.64

Task: Which pKd value is on record for B8^V5 (VHH) VHH: EVQLVESGGGVVQPGGSLRLSCAASGEIFSINFMRWYRQAPGKIREWVAGFTRDGSTNYPDSAKGRFTISRDNAKNTVYLQIDSLKPEDTAVYYCYMLDTWGQGTQVTVSS ?
Result: 8.42
